- EXPERIMENTAL TARGET: T1, human α-CGRP 1-37 (WT) (human, C-terminal amide; N-terminal biotin when captured on the SA chip; 125I-labelled in the radioligand assay)
- T1 construct: also called α-human
- T1 peptide: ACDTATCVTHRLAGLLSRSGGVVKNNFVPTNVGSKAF
- EXPERIMENTAL PROTOCOL: Biacore, 37°C, Fab over CGRP on SA chip
MEASUREMENT KIND: Kd (nM)

{"columns": ["BINDER", "MEASUREMENT KIND", "READOUT VALUE"],
 "data": [
  ["G1 variant M11 Fab (Fab, V domains shown, Fab; constant domains as m1) VH: EVQLVESGGGLVQPGGSLRLSCAASGFTFSNYWISWVRQAPGKGLEWVAEIRSESDASATHYAEAVKGRFTISRDNAKNSLYLQMNSLRAEDTAVYYCSTYFDYGLAIQNYWGQGTLVTVSS VL: EIVLTQSPATLSLSPGERATLSCKASKRVTTYVSWYQQKPGQAPRLLIYGASNRYLGIPARFSGSGSGTDFTLTISSLEPEDFAVYYCSQSYNYPYTFGQGTKLEIK", "Kd", 1.77],
  ["G1 variant M68 Fab (Fab, V domains shown, Fab; constant domains as m1; printed L561 read as L56I) VH: EVQLVESGGGLVQPGGSLRLSCAASGFTFSNYWISWVRQAPGKGLEWVAEIRSKSDNDATHYADAVKGRFTISRDNAKNSLYLQMNSLRAEDTAVYYCTVYFDYGLAIQNYWGQGTLVTVSS VL: EIVLTQSPATLSLSPGERATLSCKASKNVGTYVSWYQQKPGQAPRLLIYGASNRYIGIPARFSGSGSGTDFTLTISSLEPEDFAVYYCSQSYNYPYTFGQGTKLEIK", "Kd", 2.68],
  ["G1 variant M4 Fab (Fab, V domains shown, Fab; constant domains as m1) VH: EVQLVESGGGLVQPGGSLRLSCAASGFTFSNYWISWVRQAPGKGLEWVAEIRSESDASATHYAEAVKGRFTISRDNAKNSLYLQMNSLRAEDTAVYYCAVYFDYGLAIQNYWGQGTLVTVSS VL: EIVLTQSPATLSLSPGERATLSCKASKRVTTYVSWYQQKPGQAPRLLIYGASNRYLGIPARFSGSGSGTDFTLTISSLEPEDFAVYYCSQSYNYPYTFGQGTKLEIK", "Kd", 0.43]
]}
